Tested on: Influenza A/Anhui/1/2013 (H7N9)
Experiment: microbe, parasite or virus in culture
Conditions: H7N9, MDCK, read-out: EC50, A/Anhui/1/2013 (H7N9) (zoonotic avian)
reported_endpoint: EC50 (µM)
// note: answer is a bare numeric in µM

# input compound: NC(=O)c1ncn([C@@H]2O[C@H](CO)[C@@H](O)[C@H]2O)n1 ; wanted: its EC50
14

---

Tested on: influenza A/WSN/1933
Assay type: cell-based, Influenza A virus
Details: read-out: EC50, MOI 0.01
reported_endpoint: pEC50
Just the number, please; pEC50 means minus log10 of the concentration in mol/L.

# input compound: C#CCOCCOCCOCCOCCC(=O)N(CCOCCNC(=O)O[C@@H]([C@@H]1OC(C(=O)O)=C[C@H](NC(=N)N)[C@H]1NC(C)=O)[C@H](O)CO)CCOCCNC(=O)O[C@@H]([C@@H]1OC(C(=O)O)=C[C@H](NC(=N)N)[C@H]1NC(C)=O)[C@H](O)CO ; wanted: its pEC50
7.88

---

Tested on: Influenza B/Florida/4/2006
// reported EC50 for each item listed
// note: answer is a bare numeric in nM

{"compound": "C#CCOCCOCCOCCOCCNC(=O)O[C@H]1[C@@H]([C@@H](NC(C)=O)C(CC)CC)C(NC(=N)N)C[C@@H]1C(=O)O (stereo in doubt)", "EC50 (nM)": 4.6}

For the next question, use this compound.
# input compound: C#CCOCCOCCOCCOCCC(=O)N[C@H](CCC(=O)NCCCCCCNC(=O)O[C@H]1[C@@H]([C@@H](NC(C)=O)C(CC)CC)[C@H](NC(=N)N)C[C@@H]1C(=O)O)C(=O)NCC(=O)NCCCCCCNC(=O)O[C@H]1[C@@H]([C@@H](NC(C)=O)C(CC)CC)C(NC(=N)N)C[C@@H]1C(=O)O (stereo in doubt) ; wanted: its EC50
13

---

Experiment: in vitro
Settings: dog
reported_endpoint: CC50

# input molecule: CC(=O)N[C@H]1[C@H]([C@H](O)[C@H](O)CO)OC(C(=O)O)=C[C@@H]1N=C(N)N [Zanamivir, zanamivir] ; wanted: its CC50
> 10 µM

---

// reported EC50 for each item listed
Tested on: B (B/Malaysia/2506/2004)
Format: cell-based, Influenza B virus
// note: answer is a bare numeric in nM

{"molecule": "CC(=O)N[C@H]1[C@H]([C@H](O)[C@H](O)CO)OC(C(=O)O)=C[C@@H]1N=C(N)N", "EC50, nM": 17.3}

For the next question, use this compound.
# input compound: CCOC(=O)C1=C[C@@H](OC(CC)CC)[C@H](NC(C)=O)[C@@H](N)C1 ; wanted: its EC50
22.1

---

Tested on: A/Netherlands/602/2009 (H1N1)
Assay type: cell-based, Influenza A virus
Details: read-out: IC50 for viral replication
reported_endpoint: IC50

{"compound": "CC(=O)N[C@H]1[C@H]([C@H](O)[C@H](O)CO)OC(C(=O)O)=C[C@@H]1N=C(N)N [Zanamivir, zanamivir]", "result": "≥ 300 nM"}

# input compound: CCOC(=O)C1=C[C@@H](OC(CC)CC)[C@H](NC(C)=O)[C@@H](N)C1 [Oseltamivir, oseltamivir] ; wanted: its IC50
≥ 300 nM

---

Tested on: Influenza B/Brisbane/60/2008
Assay: microbe, parasite or virus in culture
Details: MDCK, read-out: EC50, B/Brisbane/60/2008 (Victoria lineage)
reported_endpoint: EC50
Respond with a number, then the unit of measure.

So what EC50 did NC(=O)c1ncn([C@@H]2O[C@H](CO)[C@@H](O)[C@H]2O)n1 get with Influenza B/Brisbane/60/2008?
3.3 µM

---

Tested on: H7N9 isolate (high path influenza A)
Type: cell-based, Influenza A virus
Conditions: read-out: IC50 for viral replication
pIC50: −log10 of the molar value.
reported_endpoint: pIC50

{"molecule": "CC(=O)N[C@H]1[C@H]([C@H](O)[C@H](O)CO)OC(C(=O)O)=C[C@@H]1N=C(N)N [Zanamivir, zanamivir]", "pIC50": "≤ 6.52"}

For the next question, use this molecule.
# input molecule: CCOC(=O)C1=C[C@@H](OC(CC)CC)[C@H](NC(C)=O)[C@@H](N)C1 [Oseltamivir, oseltamivir] ; wanted: its pIC50
≤ 6.52

---

Target: neuraminidase of live influenza A/Ca/07/2009 (Influenza A virus)
Conditions: read-out: A/Ca/07/2009 pdm IC50
// reported pIC50 for each item listed
Just the number, please; pIC50 means minus log10 of the concentration in mol/L.

# input compound: C#CCOCCOCCOCCOCCN(C)C(=O)O[C@@H]([C@H]1OC(C(=O)O)=C[C@@H](NC(=N)N)[C@@H]1NC(C)=O)[C@H](O)CO ; wanted: its pIC50
7.66

# input compound: C#CCOCCOCCOCCOCCNC(=O)CO[C@@H]([C@@H]1OC(C(=O)O)=C[C@H](NC(=N)N)[C@H]1NC(C)=O)[C@H](O)CO ; wanted: its pIC50
8.89

---

Tested on: H1N1 WT (A/California/12/2012)
Type: cell-based, Influenza A virus
reported_endpoint: pEC50
Just the number, please; pEC50 means minus log10 of the concentration in mol/L.

# input compound: CC(=O)N[C@H]1[C@H]([C@H](O)[C@H](O)CO)OC(C(=O)O)=C[C@@H]1N=C(N)N ; wanted: its pEC50
7.46

---

Biological target: neuraminidase of live influenza A/Ca/07/2009 (Influenza A virus, UniProt C3W6G3)
Format: biochemical
Conditions: read-out: A/Ca/07/2009 pdm IC50
// reported IC50 for each item listed
// note: answer is a bare numeric in nM

Sample answers from the record:
{"compound": "C#CCOCCOCCOCCOCCC(=O)N(CCOCCNC(=O)O[C@@H]([C@@H]1OC(C(=O)O)=C[C@H](NC(=N)N)[C@H]1NC(C)=O)[C@H](O)CO)CCOCCNC(=O)O[C@@H]([C@@H]1OC(C(=O)O)=C[C@H](NC(=N)N)[C@H]1NC(C)=O)[C@H](O)CO [Int-7a]", "IC50 / nM": 3.82}
{"compound": "C#CCOCCOCCOCCOCCC(=O)N(CCCCNC(=O)O[C@@H]([C@@H]1OC(C(=O)O)=C[C@H](NC(=N)N)[C@H]1NC(C)=O)[C@H](O)CO)CCOCCNC(=O)O[C@@H]([C@@H]1OC(C(=O)O)=C[C@H](NC(=N)N)[C@H]1NC(C)=O)[C@H](O)CO [Int-73]", "IC50 / nM": 4.61}
{"compound": "C#CCOCCOCCOCCOCCNC(=O)O[C@@H]([C@@H]1OC(C(=O)O)=C[C@H](NC(=N)N)[C@H]1NC(C)=O)[C@H](O)CO [Int-4a]", "IC50 / nM": 7.1}
{"compound": "C#CCOCCOCCOCCOCCC(=O)N(CCOCCNC(=O)O[C@@H]([C@@H]1OC(C(=O)O)=C[C@H](NC(=N)N)[C@H]1NC(C)=O)[C@H](O)CO)CCOCCOCCNC(=O)O[C@@H]([C@@H]1OC(C(=O)O)=C[C@H](NC(=N)N)[C@H]1NC(C)=O)[C@H](O)CO [Int-76]", "IC50 / nM": 2.07}
{"compound": "C#CCOCCOCCOCCOCCNC(=O)CO[C@@H]([C@@H]1OC(C(=O)O)=C[C@H](NC(=N)N)[C@H]1NC(C)=O)[C@H](O)CNC(=O)C1CC1 [Int-91]", "IC50 / nM": 46}

# input compound: C#CCOCCOCCOCCOCCC(=O)N(CCOCCOCCOCCNC(=O)O[C@@H]([C@@H]1OC(C(=O)O)=C[C@H](NC(=N)N)[C@H]1NC(C)=O)[C@H](O)CO)CCOCCOCCOCCNC(=O)O[C@@H]([C@@H]1OC(C(=O)O)=C[C@H](NC(=N)N)[C@H]1NC(C)=O)[C@H](O)CO [Int-3] ; wanted: its IC50
1.17

# input compound: C#CCOCCOCCOCCOCCC(=O)N(CCCCCCNC(=O)O[C@@H]([C@@H]1OC(C(=O)O)=C[C@H](NC(=N)N)[C@H]1NC(C)=O)[C@H](O)CO)CCOCCNC(=O)O[C@@H]([C@@H]1OC(C(=O)O)=C[C@H](NC(=N)N)[C@H]1NC(C)=O)[C@H](O)CO [Int-74] ; wanted: its IC50
1.55

# input compound: C#CCOCCOCCOCCOCCC(=O)N(CCCCNC(=O)O[C@@H]([C@@H]1OC(C(=O)O)=C[C@H](NC(=N)N)[C@H]1NC(C)=O)[C@H](O)CO)CCOCCOCCNC(=O)O[C@@H]([C@@H]1OC(C(=O)O)=C[C@H](NC(=N)N)[C@H]1NC(C)=O)[C@H](O)CO [Int-75] ; wanted: its IC50
1.76

# input compound: C#CCOCCOCCOCCOCCC(=O)N(CCOCCNC(=O)OC[C@@H](O)[C@@H](O)[C@@H]1OC(C(=O)O)=C[C@H](NC(=N)N)[C@H]1NC(C)=O)CCOCCNC(=O)OC[C@@H](O)[C@@H](O)[C@@H]1OC(C(=O)O)=C[C@H](NC(=N)N)[C@H]1NC(C)=O [Int-7c] ; wanted: its IC50
470
